These measurements were taken from paper PMC5374710.

Below: a set of entries, each annotated with reported IC50.
# experimental.system: GSK3β (Homo sapiens)
# Construct: purchased Promega V1991
# Sequence (P49841 whole entry): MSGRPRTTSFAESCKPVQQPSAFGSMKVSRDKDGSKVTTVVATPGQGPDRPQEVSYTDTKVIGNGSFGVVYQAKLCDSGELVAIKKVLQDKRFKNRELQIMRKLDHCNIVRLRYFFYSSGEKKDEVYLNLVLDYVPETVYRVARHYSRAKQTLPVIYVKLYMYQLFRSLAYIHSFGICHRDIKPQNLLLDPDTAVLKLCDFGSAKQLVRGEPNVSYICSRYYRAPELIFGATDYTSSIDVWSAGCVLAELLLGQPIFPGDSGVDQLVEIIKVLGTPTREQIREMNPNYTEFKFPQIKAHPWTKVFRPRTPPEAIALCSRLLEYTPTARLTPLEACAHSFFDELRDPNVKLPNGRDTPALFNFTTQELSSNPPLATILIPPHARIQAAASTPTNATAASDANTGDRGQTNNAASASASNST
# measurement.notes: GSK3β inhibition, luminescence Kinase-Glo assay
# Type: biochemical
# condition.description: four concentrations 0.1, 1, 10, 30 μM; ATP 1 μM; 1 h

compound | unit.string | modifier.sign | IC50
Cc1[nH]nc2c1C(c1cccnc1)C(C#N)=C(N)O2 (stereo not shown) | µM | > | 30
COc1ccc(C2C(C#N)=C(N)Oc3n[nH]c(C)c32)cc1 (stereo not shown) | µM | = | 6.6
Cc1[nH]nc2c1C(c1ccccc1)C(C#N)=C(N)N2 (stereo not shown) | µM | = | 18.6
Cc1n[nH]c2c1C(c1ccco1)C(C#N)=C(N)O2 (stereo not shown) | µM | = | 14.8
Cc1[nH]nc2c1C(c1ccncc1)C(C#N)=C(N)O2 (stereo not shown) | µM | = | 8.28
Cc1ccccc1C1C(C#N)=C(N)Oc2[nH]nc(C)c21 (stereo not shown) | µM | > | 30
Cc1[nH]nc2c1C(c1cccc([N+](=O)[O-])c1)C(C#N)=C(N)O2 (stereo not shown) | µM | = | 7.2
Cc1n[nH]c2c1C(c1ccccc1Br)C(C#N)=C(N)O2 (stereo not shown) | µM | > | 30
COc1cccc(C2C(C#N)=C(N)Oc3n[nH]c(C)c32)c1 (stereo not shown) | µM | = | 7.2
Cc1[nH]nc2c1C(c1cccc(Cl)c1)C(C#N)=C(N)O2 (stereo not shown) | µM | = | 20.5
Cc1[nH]nc2c1C(c1ccc([N+](=O)[O-])cc1)C(C#N)=C(N)O2 (stereo not shown) | µM | = | 16.3
Cc1n[nH]c2c1C(c1ccc(Cl)cc1)C(C#N)=C(N)O2 (stereo not shown) | µM | = | 6.29
Cc1[nH]nc2c1C(c1ccccc1)C(C#N)=C(N)O2 (stereo not shown) | µM | > | 30
Cc1[nH]nc2c1C(c1ccc(Br)cc1)C(C#N)=C(N)O2 (stereo not shown) | µM | = | 3.77
Cc1cccc(C2C(C#N)=C(N)Oc3n[nH]c(C)c32)c1 (stereo not shown) | µM | = | 21.4
Cc1n[nH]c2c1C(c1cccs1)C(C#N)=C(N)O2 (stereo not shown) | µM | > | 30
Cc1ccc(C2C(C#N)=C(N)Oc3[nH]nc(C)c32)cc1 (stereo not shown) | µM | = | 17.5
Cc1n[nH]c2c1C(c1ccc(F)cc1)C(C#N)=C(N)O2 (stereo not shown) | µM | = | 17.9
COc1ccccc1C1C(C#N)=C(N)Oc2n[nH]c(C)c21 (stereo not shown) | µM | = | 16.4
